Where these numbers come from: patent US7902373B2

Molecular target: human recombinant H-PGDS (Homo sapiens)
Test: Fluorescence intensity h-PGDS TBA enzyme assay
Format: biochemical
Conditions: Examples up to 622 (and 3a, 3b)
pIC50: −log10 of the molar value.
Everything with pIC50 lower than 9 is label 0; everything else, including exactly 9, is label 1.

INSERT INTO assay_data (entry_smiles, discrete_label) VALUES
  ('CN(c1nccc(CN2CCC(NC(=O)c3ccc(-c4cccc(F)c4)nc3)CC2)n1)C1CCCCC1', 'label 0'),
  ('COc1ccc(CN2CCC(NC(=O)c3ccc(-c4cccc(F)c4)nc3)CC2)cc1Cl', 'label 1'),
  ('O=C(NC1CCN(c2ncccc2C(=O)c2nccs2)CC1)c1ccc(-c2cccc(F)c2)nc1', 'label 1');

====

Molecular target: human recombinant H-PGDS (Homo sapiens, UniProt O60760)
Sequence (O60760 whole entry): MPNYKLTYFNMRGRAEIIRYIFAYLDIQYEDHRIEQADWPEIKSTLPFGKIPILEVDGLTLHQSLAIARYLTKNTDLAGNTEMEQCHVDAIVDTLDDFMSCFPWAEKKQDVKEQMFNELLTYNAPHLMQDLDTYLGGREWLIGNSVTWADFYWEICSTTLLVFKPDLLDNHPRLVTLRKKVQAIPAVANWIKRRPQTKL
Assay: Fluorescence intensity h-PGDS TBA enzyme assay
Assay type: biochemical
Details: Examples up to 622 (and 3a, 3b)
Output 1 for records whose IC50 is lower than 1000 pM, -1 for records at or above 1000 pM.

INSERT INTO results (compound, discrete_label) VALUES
  ('O=C(NC1CCN(Cc2c[nH]c3ccc(F)cc23)CC1)c1ccc(-c2cccc(F)c2)nc1 [Example 252]', 1),
  ('CC(C)Oc1ncccc1CN1CCC(NC(=O)c2ccc(-c3cccc(F)c3)nc2)CC1 [Example 461]', 1),
  ('CC(CC1CC1)N1CCC(NC(=O)c2ccc(-c3cccc(F)c3)nc2)CC1 (stereo not shown) [Example 527]', -1),
  ('O=C(NC1CCN(Cc2cccc(F)c2)CC1)c1ccc(-c2ccccc2F)nc1 [Example 588]', 1),
  ('CC(C)(C)C(=O)N1C[C@@H](O)[C@H](NC(=O)c2ccc(-c3cccc(F)c3)nc2)C1 (relative stereo) [Example 612]', -1),
  ('O=C(NC1CCN(C2CCOCC2)CC1)c1ccc(-c2cccc(F)c2)nc1 [Example 547]', -1),
  ('COc1cc(CN2CCC(NC(=O)c3ccc(-c4cccc(F)c4)nc3)CC2)ccc1OC(C)C [Example 184]', -1),
  ('CCCc1ncc(CN2CCC(NC(=O)c3ccc(-c4cccc(F)c4)nc3)CC2)cn1 [Example 441]', -1),
  ('COc1cc(OC)cc(C(C)N2CCC(NC(=O)c3ccc(-c4cccc(F)c4)nc3)CC2)c1 (stereo not shown) [Example 544]', -1),
  ('CC(C)Oc1ccc(CN2CCC(NC(=O)c3ccc(-c4cccc(F)c4)nc3)CC2)cc1CO [Example 428]', 1),
  ('CC(C)(C)CN1CCC(NC(=O)c2ccc(-c3cccc(F)c3)nc2)CC1 [Example 251]', 1),
  ('N#Cc1nccnc1N1CCC(NC(=O)c2ccc(-c3cccc(F)c3)nc2)CC1 [Example 142]', 1),
  ('O=C(NC1CCN(c2ncnc3c2ncn3CCN2CCCCC2)CC1)c1ccc(-c2cccc(F)c2)nc1 [Example 107]', 1),
  ('COc1c(C)cnc(CN2CCC(NC(=O)c3ccc(-c4cccc(F)c4)nc3)CC2)c1C [Example 487]', 1),
  ('COc1cccc(OC)c1C(C)N1CCC(NC(=O)c2ccc(-c3cccc(F)c3)nc2)CC1 (stereo not shown) [Example 533]', -1),
  ('Cc1nn(C)c(N2CCCOCC2)c1CN1CCC(NC(=O)c2ccc(-c3cccc(F)c3)nc2)CC1 [Example 479]', 1);

====

A collection of compounds and their measured IC50
Biological target: human recombinant H-PGDS (Homo sapiens, UniProt O60760)
Test: Fluorescence intensity h-PGDS TBA enzyme assay
Type: biochemical
Conditions: Examples up to 622 (and 3a, 3b)
readout: IC50 (nM)

INSERT INTO measurements (compound, readout, val) VALUES
  ('Cc1ccc(C#N)c(N2CCC(NC(=O)c3ccc(-c4cccc(F)c4)nc3)CC2)n1 [Example 41]', 'IC50', 0.893),
  ('O=C(NC1CCN(c2ccc(C(=O)Nc3ccon3)nn2)CC1)c1ccc(-c2cccc(F)c2)nc1 [Example 85]', 'IC50', 0.72),
  ('Cn1ccc(CN2CCC(NC(=O)c3ccc(-c4cccc(F)c4)nc3)CC2)n1 [Example 396]', 'IC50', 1.45),
  ('CC(C)CN(C)C(=O)c1ccc(N2CCC(NC(=O)c3ccc(-c4cccc(F)c4)nc3)CC2)nn1 [Example 159]', 'IC50', 1.59),
  ('Cn1cc(CN2CCC(NC(=O)c3ccc(-c4cccc(F)c4)nc3)CC2)cn1 [Example 196]', 'IC50', 1.35),
  ('Cc1c(CN2CCC(NC(=O)c3ccc(-c4cccc(F)c4)nc3)CC2)cnn1C [Example 287]', 'IC50', 3),
  ('O=C(N[C@@H]1CN(c2nc3ccccc3o2)C[C@H]1O)c1ccc(-c2cccc(F)c2)nc1 (relative stereo) [Example 616]', 'IC50', 5.12),
  ('O=C(NC1CCN(Cc2ccccc2)CC1)c1ccc(-c2ccc(F)cc2)nc1 [Example 13]', 'IC50', 58);

====

Target: human recombinant H-PGDS (Homo sapiens)
Assay: Fluorescence intensity h-PGDS TBA enzyme assay
Format: biochemical
Details: Examples up to 622 (and 3a, 3b)
pIC50: −log10 of the molar value.
readout: pIC50

INSERT INTO results (compound, readout, val) VALUES
  ('O=C(NC1CCN(Cc2cc(=O)[nH]c(=O)[nH]2)CC1)c1ccc(-c2cccc(F)c2)nc1 [Example 310]', 'pIC50', 8.32),
  ('COc1ccccc1CN1CCC(NC(=O)c2ccc(-c3cccc(F)c3)nc2)CC1 [Example 231]', 'pIC50', 9.26),
  ('O=C(NC1CCN(Cc2cccc(-c3cnccn3)c2)CC1)c1ccc(-c2cccc(F)c2)nc1 [Example 198]', 'pIC50', 8.98),
  ('Cc1ccc(C#N)c(N2C[C@H](NC(=O)c3ccc(-c4cccc(F)c4)nc3)[C@@H](O)C2)n1 (relative stereo) [Example 617]', 'pIC50', 8.39),
  ('O=C(NC1CCN(c2ncnc3c2ncn3C2CCCC2)CC1)c1ccc(-c2cccc(F)c2)nc1 [Example 112]', 'pIC50', 8.73),
  ('COC(=O)c1cnc(N2CCC(NC(=O)c3ccc(-c4cccc(F)c4)nc3)CC2)cn1 [Example 167]', 'pIC50', 8.50),
  ('Cc1ccc(CN2CCC(NC(=O)c3ccc(-c4cccc(F)c4)nc3)CC2)cc1F [Example 202]', 'pIC50', 8.93),
  ('COCCN1CCC(N2CCC(NC(=O)c3ccc(-c4cccc(F)c4)nc3)CC2)CCC1=O (stereo not shown) [Example 539]', 'pIC50', 8.57),
  ('Cc1cc(C)n2nc(CN3CCC(NC(=O)c4ccc(-c5cccc(F)c5)nc4)CC3)nc2n1 [Example 504]', 'pIC50', 8.55),
  ('Cc1cc(N2CCC(NC(=O)c3ccc(-c4cccc(F)c4)nc3)CC2)nc(N2CCCCC2)n1 [Example 116]', 'pIC50', 8.59),
  ('CCOC(=O)N1CCC(NC(=O)c2ccc(-c3cc(F)cc(F)c3)nc2)CC1 [Example 33]', 'pIC50', 8.62),
  ('CN1CCc2nc(N3CCC(NC(=O)c4ccc(-c5cccc(F)c5)nc4)C3)ncc2C1 (stereo not shown) [Example 597]', 'pIC50', 9.07),
  ('CC(C)CN1CCC(N2CCC(NC(=O)c3ccc(-c4cccc(F)c4)nc3)CC2)CCC1=O (stereo not shown) [Example 538]', 'pIC50', 8.71),
  ('O=C(NC1CCN(C(=O)OCc2ccccc2)CC1)c1ccc(-c2cccc(F)c2)nc1 [Example 521]', 'pIC50', 6.25),
  ('O=C(NC1CCNCC1)c1ccc(-c2cccc(F)c2)nc1 [Example 36]', 'pIC50', 8.15),
  ('O=C(NC1CCN(Cc2ccnc(N3CCOCC3)n2)CC1)c1ccc(-c2cccc(F)c2)nc1 [Example 397]', 'pIC50', 8.83);

====

Molecular target: human recombinant H-PGDS (Homo sapiens, UniProt O60760)
Assay: Fluorescence intensity h-PGDS TBA enzyme assay
Format: biochemical
Conditions: Examples up to 622 (and 3a, 3b)
readout: IC50

INSERT INTO assay_data (entry_smiles, readout, val) VALUES
  ('COCc1cc(CN2CCC(NC(=O)c3ccc(-c4cccc(F)c4)nc3)CC2)ccc1OC', 'IC50', '1.55 nM'),
  ('O=C(NC1CCN(Cc2cnn3c2CCCC3)CC1)c1ccc(-c2cccc(F)c2)nc1', 'IC50', '1.2 nM'),
  ('COc1cc(CN2CCC(NC(=O)c3ccc(-c4cccc(F)c4)nc3)CC2)cc(Cl)c1O', 'IC50', '0.58 nM'),
  ('COc1cc2ncc(N3CCC(NC(=O)c4ccc(-c5cccc(F)c5)nc4)CC3)nc2cc1OC', 'IC50', '16 nM');
